- test_details: activity coefficient (dimensionless); of the first substance listed, at infinite dilution; xn = mol fraction of the nth substance listed
- test_conditions: 323.15 K; Liquid; x1 = 0
activity coefficient values, listed per item
Format: numeric value only, no unit, no commentary.

The examples below pair each entry with its known result.
(Q) # get_value(readout='activity coefficient', item= C#CCCCCCC [1-octyne] + CCCCCCn1cc[n+](C)c1.F[P-](F)(F)(F)(F)F )
(A) 5.81

(Q) # get_value(readout='activity coefficient', item= C#CCCCC [1-hexyne] + CCCCCCn1cc[n+](C)c1.F[P-](F)(F)(F)(F)F )
(A) 2.82

(Q) # get_value(readout='activity coefficient', item= CCCCC [pentane] + CCCCCCn1cc[n+](C)c1.F[P-](F)(F)(F)(F)F )
(A) 8.48

(Q) # get_value(readout='activity coefficient', item= C1CCCCC1 [cyclohexane] + CCCCCCn1cc[n+](C)c1.F[P-](F)(F)(F)(F)F )
(A) 9.38

Now for a further compound.
(Q) # get_value(readout='activity coefficient', item= C1CCCC1 [cyclopentane] + CCCCCCn1cc[n+](C)c1.F[P-](F)(F)(F)(F)F )
(A) 6.08

----------
activity coefficient values, listed per item
- test_details: activity coefficient (dimensionless); of the first substance listed, at infinite dilution; xn = mol fraction of the nth substance listed
- test_conditions: 313.15 K; Liquid; x1 = 0
Format: numeric value only, no unit, no commentary.

(Q) # get_value(readout='activity coefficient', item= C#CCCCCC [1-heptyne] + CCCCCCn1cc[n+](C)c1.F[P-](F)(F)(F)(F)F )
(A) 4.03

(Q) # get_value(readout='activity coefficient', item= C1CCCC1 [cyclopentane] + CCCCCCn1cc[n+](C)c1.F[P-](F)(F)(F)(F)F )
(A) 7.21

(Q) # get_value(readout='activity coefficient', item= C=CCCCCCC [oct-1-ene] + CCCCCCn1cc[n+](C)c1.F[P-](F)(F)(F)(F)F )
(A) 19.5

***
(Q) # get_value(readout='activity coefficient', item= C#CCCCCCC [1-octyne] + CCCCCCn1cc[n+](C)c1.F[P-](F)(F)(F)(F)F )
(A) 5.86

(Q) # get_value(readout='activity coefficient', item= C#CCCCC [1-hexyne] + CCCCCCn1cc[n+](C)c1.F[P-](F)(F)(F)(F)F )
(A) 2.78

----------
- test_details: activity coefficient (dimensionless); of the first substance listed, at infinite dilution; xn = mol fraction of the nth substance listed
- test_conditions: 323.15 K; Liquid; x1 = 0
measured_quantity: activity coefficient
Format: numeric value only, no unit, no commentary.

(Q) # get_value(readout='activity coefficient', item= c1ccccc1 [benzene] + CCCCCCn1cc[n+](C)c1.F[P-](F)(F)(F)(F)F )
(A) 1.07

----------
- test_details: activity coefficient (dimensionless); of the first substance listed, at infinite dilution; xn = mol fraction of the nth substance listed
- test_conditions: 313.15 K; Liquid; x1 = 0
measured_quantity: activity coefficient
Format: numeric value only, no unit, no commentary.

The examples below pair each entry with its known result.
(Q) # get_value(readout='activity coefficient', item= c1ccccc1 [benzene] + CCCCCCn1cc[n+](C)c1.F[P-](F)(F)(F)(F)F )
(A) 1.04

(Q) # get_value(readout='activity coefficient', item= CCCCCCCC [octane] + CCCCCCn1cc[n+](C)c1.F[P-](F)(F)(F)(F)F )
(A) 37.1

(Q) # get_value(readout='activity coefficient', item= C=CCCCC [hex-1-ene] + CCCCCCn1cc[n+](C)c1.F[P-](F)(F)(F)(F)F )
(A) 9.09

***
(Q) # get_value(readout='activity coefficient', item= C1CCCCCCC1 [cyclooctane] + CCCCCCn1cc[n+](C)c1.F[P-](F)(F)(F)(F)F )
(A) 18.7

(Q) # get_value(readout='activity coefficient', item= CO [methanol] + CCCCCCn1cc[n+](C)c1.F[P-](F)(F)(F)(F)F )
(A) 1.6

(Q) # get_value(readout='activity coefficient', item= CCCCC [pentane] + CCCCCCn1cc[n+](C)c1.F[P-](F)(F)(F)(F)F )
(A) 12.2

(Q) # get_value(readout='activity coefficient', item= C=CCCCCC [1-heptene] + CCCCCCn1cc[n+](C)c1.F[P-](F)(F)(F)(F)F )
(A) 13.8

(Q) # get_value(readout='activity coefficient', item= CCCCCCC [heptane] + CCCCCCn1cc[n+](C)c1.F[P-](F)(F)(F)(F)F )
(A) 25.7
